target: ACVRL1 (human); assay: KINOMEscan competition binding; settings: compound 10.0 µM
Some compounds, each annotated with its measured kinase still bound, per cent of control.
EXPERIMENTAL_READOUT: kinase still bound, per cent of control (%)

| QUERY_SMILES | EXPERIMENTAL_READOUT | UNIT_OF_MEASUREMENT | RECORDED_NUMBER |
| --- | --- | --- | --- |
| COc1cc(N2CCN(C)CC2)ccc1Nc1ncc2c(n1)N(C)c1ccccc1N(C)C2=O | kinase still bound, per cent of control | % | 100 |
| COc1cc(N2CCN(C)CC2)ccc1Nc1ncc2c(n1)N(C)c1sccc1C(=O)N2C | kinase still bound, per cent of control | % | 99 |
| CN1C(=O)c2ccccc2N(C)c2nc(NS(=O)(=O)c3ccc(N)cc3)ncc21 | kinase still bound, per cent of control | % | 100 |
| CN1C(=O)c2ccccc2N(C)c2nc(Nc3ccc(N4CCC(O)CC4)cc3)ncc21 | kinase still bound, per cent of control | % | 100 |
| CN1CCN(c2ccc(C(=O)Nc3ncc4c(n3)N(C)c3ccccc3C(=O)N4C)cc2)CC1 | kinase still bound, per cent of control | % | 98 |

###

biological target: MYLK4 (human) (UniProt Q86YV6); assay: KINOMEscan competition binding; settings: compound 10.0 µM
Sequence (Q86YV6 whole entry, looked up): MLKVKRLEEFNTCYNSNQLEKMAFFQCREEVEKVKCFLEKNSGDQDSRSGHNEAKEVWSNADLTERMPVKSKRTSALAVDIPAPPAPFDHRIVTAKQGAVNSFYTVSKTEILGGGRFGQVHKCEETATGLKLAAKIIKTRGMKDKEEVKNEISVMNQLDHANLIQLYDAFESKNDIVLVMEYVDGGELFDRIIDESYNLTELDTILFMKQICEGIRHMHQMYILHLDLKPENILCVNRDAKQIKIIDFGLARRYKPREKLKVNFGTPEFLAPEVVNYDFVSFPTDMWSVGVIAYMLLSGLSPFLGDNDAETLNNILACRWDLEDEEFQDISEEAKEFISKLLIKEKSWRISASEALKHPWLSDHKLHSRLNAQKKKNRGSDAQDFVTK
EXPERIMENTAL_READOUT: kinase still bound, per cent of control (%)

| QUERY_SMILES | RECORDED_NUMBER |
| --- | --- |
| COc1cc(N2CCN(C)CC2)ccc1Nc1ncc2c(n1)N(C)c1ccccc1C(=O)N2 | 2.2 |
| N=C1NC(=O)/C(=C/c2ccc(-c3ccccc3O)o2)S1 | 5.9 |
| COc1cc(N2CCN(C)CC2)ccc1Nc1ncc2c(n1)N1CCC[C@H]1CC(=O)N2 | 7.8 |
| CN1C(=O)[C@H]2CCC[C@H]2N(C2CCCC2)c2nc(Nc3ccc4ncccc4c3)ncc21 | 33 |
| N=C1NC(=O)/C(=C/c2ccc(-c3ccc(C(N)=O)cc3O)o2)S1 | 6 |
| COc1cc(N2CCN(C)CC2)ccc1Nc1ncc2c(n1)N(C(C)C)c1ccccc1C(=O)N2 | 5.8 |
| N=C1NC(=O)/C(=C/c2ccc(-c3ccc(F)cc3O)o2)S1 | 8.1 |
| N=C1NC(=O)/C(=C/c2ccc(-c3ccc(S(N)(=O)=O)cc3)o2)S1 | 6.7 |
| CN1C(=O)[C@H]2CCC[C@H]2N(C2CCCC2)c2nc(Nc3ccc(C(N)=O)cc3)ncc21 | 30 |
| COc1cc(N2CCN(C)CC2)ccc1Nc1ncc2c(n1)Nc1ccccc1NC2=O | 100 |
| CN(C)C1=NC(=O)/C(=C/c2ccc(-c3ccc(S(N)(=O)=O)cc3)o2)S1 | 24 |
| COc1cc(N2CCN(C)CC2)ccc1Nc1ncc2c(n1)N(C)c1sccc1C(=O)N2C | 100 |
| CN1C(=O)c2ccccc2N(C)c2nc(Nc3ccc(N4CCC(O)CC4)cc3)ncc21 | 100 |
| O=C1NC(=S)S/C1=C\c1ccc(-c2cncc3ccccc23)o1 | 0.25 |
| N=C1NC(=O)/C(=C/c2ccc(-c3cncc4ccccc34)o2)S1 | 0.05 |
| COc1cc(N2CCN(C)CC2)ccc1Nc1ncc2c(n1)N(C)c1ccccc1N(C)C2=O | 100 |
| COc1cc(N2CCC(O)CC2)ccc1Nc1ncc2c(n1)N1CCc3cccc(c31)C(=O)N2C | 100 |
| N=C1NC(=O)/C(=C/c2ccc(-c3cccc4cc[nH]c34)o2)S1 | 32 |
| CS(=O)(=O)Nc1ccc(-c2ccc(/C=C3\SC(=N)NC3=O)o2)cc1 | 8.2 |
| O=C1NC(=O)/C(=C/c2ccc(-c3ccc(F)cc3O)o2)S1 | 17 |

###

system: KIT (human), P10721 [D816V]; assay: KINOMEscan competition binding; details: compound 10.0 µM
Sequence (P10721 whole entry D816V, looked up): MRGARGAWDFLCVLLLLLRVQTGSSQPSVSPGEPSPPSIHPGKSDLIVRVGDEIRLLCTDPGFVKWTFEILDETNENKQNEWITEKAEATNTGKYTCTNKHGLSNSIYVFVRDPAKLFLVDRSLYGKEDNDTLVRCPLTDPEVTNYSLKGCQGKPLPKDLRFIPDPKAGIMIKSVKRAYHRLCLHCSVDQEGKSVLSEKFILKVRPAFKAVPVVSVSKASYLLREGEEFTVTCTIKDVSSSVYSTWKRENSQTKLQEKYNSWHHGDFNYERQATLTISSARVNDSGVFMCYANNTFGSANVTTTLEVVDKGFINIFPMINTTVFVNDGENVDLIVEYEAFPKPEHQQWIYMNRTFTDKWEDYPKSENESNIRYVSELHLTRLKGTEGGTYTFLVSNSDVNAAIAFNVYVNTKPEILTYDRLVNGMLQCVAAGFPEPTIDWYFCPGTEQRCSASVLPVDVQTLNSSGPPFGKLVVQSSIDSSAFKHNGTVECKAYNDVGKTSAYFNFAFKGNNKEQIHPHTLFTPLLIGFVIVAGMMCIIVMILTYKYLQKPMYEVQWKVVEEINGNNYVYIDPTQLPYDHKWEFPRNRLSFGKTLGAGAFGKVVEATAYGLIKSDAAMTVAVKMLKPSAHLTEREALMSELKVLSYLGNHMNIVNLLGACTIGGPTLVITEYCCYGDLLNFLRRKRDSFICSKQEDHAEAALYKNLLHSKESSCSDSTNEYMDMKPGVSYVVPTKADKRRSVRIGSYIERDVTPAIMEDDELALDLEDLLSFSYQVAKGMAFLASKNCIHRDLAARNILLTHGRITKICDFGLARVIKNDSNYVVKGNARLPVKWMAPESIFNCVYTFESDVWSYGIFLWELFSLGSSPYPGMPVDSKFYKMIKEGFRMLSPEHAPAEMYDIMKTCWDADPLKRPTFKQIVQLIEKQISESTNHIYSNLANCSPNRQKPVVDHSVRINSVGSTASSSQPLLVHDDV
Some compounds, each annotated with its measured kinase still bound, per cent of control.
EXPERIMENTAL_READOUT: kinase still bound, per cent of control

| QUERY_SMILES | RESULT |
| --- | --- |
| CN1CCN(c2ccc(C(=O)Nc3ncc4c(n3)N(C)c3ccccc3C(=O)N4C)cc2)CC1 | 100% |
| COc1cc(N2CCN(C)CC2)ccc1Nc1ncc2c(n1)N(c1ccccc1)CCC(=O)N2 | 2.4% |
| CN1C(=O)c2ccccc2N(C)c2nc(Nc3ccc(N4CCC(O)CC4)cc3)ncc21 | 69% |
| O=C1NC(=S)S/C1=C\c1ccc(-c2cncc3ccccc23)o1 | 9.6% |
| COc1cc(N2CCN(C)CC2)ccc1Nc1ncc2c(n1)N(C)c1sccc1C(=O)N2C | 100% |

###

Some molecules, each annotated with its measured kinase still bound, per cent of control.
molecular target: STK16 (human); assay: KINOMEscan competition binding; details: compound 10.0 µM
EXPERIMENTAL_READOUT: kinase still bound, per cent of control

| QUERY_SMILES | EXPERIMENTAL_READOUT | RESULT |
| --- | --- | --- |
| CN1C(=O)c2ccccc2N(C)c2nc(NS(=O)(=O)c3ccc(N)cc3)ncc21 | kinase still bound, per cent of control | 100% |
| CN1C(=O)c2ccccc2N(C)c2nc(Nc3ccc(N4CCC(O)CC4)cc3)ncc21 | kinase still bound, per cent of control | 59% |
| COc1cc(N2CCN(C)CC2)ccc1Nc1ncc2c(n1)Nc1ccccc1NC2=O | kinase still bound, per cent of control | 100% |
| N=C1NC(=O)/C(=C/c2ccc(-c3cncc4ccccc34)o2)S1 | kinase still bound, per cent of control | 2.6% |
| O=C1NC(=O)/C(=C/c2c[nH]c(=O)c(-c3ccc(N4CCNCC4)nc3)c2)S1 | kinase still bound, per cent of control | 36% |
| CN1C(=O)[C@H]2CCC[C@H]2N(C2CCCC2)c2nc(Nc3ccc(C(N)=O)cc3)ncc21 | kinase still bound, per cent of control | 4.8% |
| CN1C(=O)c2ccccc2N(C)c2nc(Nc3ccc(N4CCC(O)CC4)cn3)ncc21 | kinase still bound, per cent of control | 31% |
| CN1CCN(c2ccc(C(=O)Nc3ncc4c(n3)N(C)c3ccccc3C(=O)N4C)cc2)CC1 | kinase still bound, per cent of control | 85% |
| COc1cc(N2CCC(O)CC2)ccc1Nc1ncc2c(n1)N1CCc3cccc(c31)C(=O)N2C | kinase still bound, per cent of control | 48% |
| CSC1=NC(=O)/C(=C/c2c[nH]c(=O)c(-c3ccc(NS(C)(=O)=O)cc3)c2)S1 | kinase still bound, per cent of control | 21% |
| Cc1cn(-c2cc(NC(=O)c3cccc4cc(-c5ccc(/C=C6\SC(=N)NC6=O)o5)ccc34)cc(C(F)(F)F)c2)cn1 | kinase still bound, per cent of control | 22% |
| CN1C(=O)[C@H]2CCC[C@H]2N(C2CCCC2)c2nc(Nc3ccc4ncccc4c3)ncc21 | kinase still bound, per cent of control | 2.2% |
| Nc1cccc(-c2cc(/C=C3\SC(=O)NC3=O)c[nH]c2=O)c1 | kinase still bound, per cent of control | 9.3% |
| COc1cc(N2CCN(C)CC2)ccc1Nc1ncc2c(n1)N(C)c1ccccc1N(C)C2=O | kinase still bound, per cent of control | 100% |
| COc1cc(N2CCN(C)CC2)ccc1Nc1ncc2c(n1)N(C)c1sccc1C(=O)N2C | kinase still bound, per cent of control | 81% |
| O=C1NC(=S)S/C1=C\c1ccc(-c2cncc3ccccc23)o1 | kinase still bound, per cent of control | 9.8% |

###

target: MAPK15 (human) (UniProt Q8TD08)
Sequence (Q8TD08 whole entry, looked up): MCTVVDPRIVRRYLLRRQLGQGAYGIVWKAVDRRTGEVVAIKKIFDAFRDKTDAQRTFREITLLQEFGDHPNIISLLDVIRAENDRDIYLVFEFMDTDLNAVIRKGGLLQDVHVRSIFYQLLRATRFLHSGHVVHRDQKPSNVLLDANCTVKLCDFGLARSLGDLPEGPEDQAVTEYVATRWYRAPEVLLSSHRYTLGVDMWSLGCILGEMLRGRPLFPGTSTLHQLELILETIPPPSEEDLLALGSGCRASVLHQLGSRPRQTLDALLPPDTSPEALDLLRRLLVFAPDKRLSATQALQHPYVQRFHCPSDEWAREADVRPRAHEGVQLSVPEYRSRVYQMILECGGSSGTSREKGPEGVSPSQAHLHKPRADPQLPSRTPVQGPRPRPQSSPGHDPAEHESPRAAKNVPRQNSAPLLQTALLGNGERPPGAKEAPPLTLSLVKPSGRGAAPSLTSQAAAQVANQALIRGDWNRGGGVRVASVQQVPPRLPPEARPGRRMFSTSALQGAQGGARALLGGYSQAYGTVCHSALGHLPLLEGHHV

| QUERY_SMILES | TARGET_SYSTEM | Kd (µM) |
| --- | --- | --- |
| O=C1NC(=O)/C(=C/c2c[nH]c(=O)c(-c3ccc(N4CCNCC4)nc3)c2)S1 | MAPK15 (human) (UniProt Q8TD08) | 0.39 |

###

biological target: ADCK4 (human); experiment: KINOMEscan competition binding; details: compound 10.0 µM
Entries whose kinase still bound, per cent of control is below 80% take MET; entries at or above 80% take NOT MET.

| QUERY_SMILES | ASSIGNED_CLASS |
| --- | --- |
| CN1CCN(c2ccc(C(=O)Nc3ncc4c(n3)N(C)c3ccccc3C(=O)N4C)cc2)CC1 | NOT MET |
| CN1C(=O)[C@H]2CCC[C@H]2N(C2CCCC2)c2nc(Nc3ccc4ncccc4c3)ncc21 | MET |
| CN1C(=O)c2ccccc2N(C)c2nc(NS(=O)(=O)c3ccc(N)cc3)ncc21 | NOT MET |
| COc1cc(N2CCC(O)CC2)ccc1Nc1ncc2c(n1)N1CCc3cccc(c31)C(=O)N2C | NOT MET |
| COc1cc(N2CCN(C)CC2)ccc1Nc1ncc2c(n1)Nc1ccccc1NC2=O | NOT MET |
